Listing: OD450 of selected binders
- assaySystem: T1, Peptide 8: Biotin-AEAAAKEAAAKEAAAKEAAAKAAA-Tyr-acid (N-terminal biotin; C-terminal acid)
- T1 construct: Control peptide without PC
- T1 peptide: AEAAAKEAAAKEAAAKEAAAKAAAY
- measurementProtocol: scFv ELISA
propertyName: OD450 (OD450)

{"binder": "PcOxP_DB03_A10 (scFv, V domains shown, scFv in periplasmic extract) VH: EVQLLESGGGLVQPGGSLRLSCAASGWTFSDFYMEWVRQAPGKGLEWVAASRNKANDYTTEYADSVKGRFTISRDNSKNTLYLQMNSLRAEDTAVYYCARDYYGSSYWYFDVWGQGTLVTVSS VL: DIVMTQSPDSLAVSLGERATINCTASESLYSSKHKVHYLAWYQQKPGQPPKLLIYGASQRYIGVPDRFSGSGSGTDFTLTISSLQAEDVAVYYCAQFYLYPLTFGGGTKVEIK", "recordedValue": 0.04}
{"binder": "PcOxP_DB03_E04 (scFv, V domains shown, scFv in periplasmic extract) VH: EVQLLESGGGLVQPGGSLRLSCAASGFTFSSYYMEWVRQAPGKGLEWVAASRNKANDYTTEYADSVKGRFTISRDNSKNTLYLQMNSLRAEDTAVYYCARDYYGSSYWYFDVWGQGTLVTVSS VL: DIVMTQSPDSLAVSLGERATINCTASESLYSSKHKVHYLAWYQQKPGQPPKLLIYGASNRYLGVPDRFSGSGSGTDFTLTISSLQAEDVAVYYCAQFYSYPLTFGGGTKVEIK", "recordedValue": 0.04}
{"binder": "PcOxP_DB03_C01 (scFv, V domains shown, scFv in periplasmic extract) VH: EVQLLESGGGLVQPGGSLRLSCAASGFTFSDFYMEWVRQAPGKGLEWVAASRNKANDYTTEVADSVKGRFTISRDNSKNTLYLQMNSLRAEDTAVYYCARDYYGSSNWYFDVWGQGTLVTVSS VL: DIVMTQSPDSLAVSLGERATINCTASESLYSSKIKVHYLAWYQQKPGQPPKLLIYGAHNRYIGVPDRFSGSGSGTDFTLTISSLQAEDVAVYYCAQFYSYPLTFGGGTKVEIK", "recordedValue": 0.05}
{"binder": "PcOxP_DB03_B07 (scFv, V domains shown, scFv in periplasmic extract) VH: EVQLLESGGGLVQPGGSLRLSCAASGFGFSDFYMEWVRQAPGKGLEWVAASRNKANDYTTEYADSVKGRFTISRDNSKNTLYLQMNSLRAEDTAVYYCARDYYSSSYWYFDVWGQGTLVTVSS VL: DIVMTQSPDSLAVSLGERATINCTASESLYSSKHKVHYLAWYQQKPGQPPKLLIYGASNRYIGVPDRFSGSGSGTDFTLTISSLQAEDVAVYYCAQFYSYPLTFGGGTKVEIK", "recordedValue": 0.05}
{"binder": "PcOxP_DB04_B10 (scFv, V domains shown, scFv in periplasmic extract) VH: EVQLLESGGGLVQPGGSLRLSCAASGFTDSDFYMEWVRQAPGKGLEWVAASRNKANGYTTEYADSVKGRFTISRDNSKNTLYLQMNSLRAEDTAVYYCARDYYGSSYWYFDVWGQGTLVTVSS VL: DIVMTQSPDSLAVSLGERATINCTASESLYSSKHKVHYLAWYQQKPGQPPKLLIYGASNRPIGVPDRFSGSGSGTDFTLTISSLQAEDVAVYYCGQFYSYPLTFGGGTKVEIK", "recordedValue": 0.04}
{"binder": "PcOxP_DB03_B01 (scFv, V domains shown, scFv in periplasmic extract) VH: EVQLLESGGGLVQPGGSLRLSCAASGFTFSSYYMEWVRQAPGKGLEWVAASRNTANDYTTEYADSVKGRFTISRDNSKNTLYLQMNSLRAEDTAVYYCARDYYGSSYWYFDVWGQGTLVTVSS VL: DIVMTQSPDSLAVSLGERATINCTASESLYSSKHKVHYLAWYQQKPGQPPKLLIYGASNREIGVPDRFSGSGSGTDFTLTISSLQAEDVAVYYCAQFYSYPLTFGGGTKVEIK", "recordedValue": 0.04}
{"binder": "PcOxP_DB03_F07 (scFv, V domains shown, scFv in periplasmic extract) VH: EVQLLESGGGLVQPGGSLRLSCAASGFTQSDFYMEWVRQAPGKGLEWVAASRNKGNSYTTAYADSVKGRFTISRDNSKNTLYLQMNSLRAEDTAVYYCARDYYGSSYWYFDVWGQGTLVTVSS VL: DIVMTQSPDSLAVSLGERATINCTASESLYSGKHKVHYLAWYQQKPGQPPKLLIYGASNRYIGVPDRFSGSGSGTDFTLTISSLQAEDVAVYYCAQFYSYPLTFGGGTKVEIK", "recordedValue": 0.05}
{"binder": "PcOxP_DB04_D09 (scFv, V domains shown, scFv in periplasmic extract) VH: EVQLLESGGGLVQPGGSLRLSCAASGFTDSDFYMEWVRQAPGKGLEWVAASRNKANDYTTEYADSVKGRFTISRDNSKNTLYLQMNSLRAEDTAVYYCARDYYGSSYWYFDVWGQGTLVTVSS VL: DIVMTQSPDSLAVSLGERATINCKSSESLYSSKNKVHYLAWYQQKPGQPPKLLIYGASNRYSGVPDRFSGSGSGTDFTLTISSLQAEDVAVYYCAQFYSYPLTFGGGTKVEIK", "recordedValue": 0.08}
{"binder": "PcOxP_DB02_F09 (scFv, V domains shown, scFv in periplasmic extract) VH: EVQLLESGGGLVQPGGSLRLSCAASGFQFSDFYMEWVRQAPGKGLEWVAASRNKGNSYTTAYADSVKGRFTISRDNSKNTLYLQMNSLRAEDTAVYYCARDYYGSSYWYFDVWGQGTLVTVSS VL: DIVMTQSPDSLAVSLGERATINCTASESLYSSKHKVHYLAWYQQKPGQPPKLLIYGASNRYSGVPDRFSGSGSGTDFTLTISSLQAEDVAVYYCAQFYSYPLTFGGGTKVEIK", "recordedValue": 0.04}
{"binder": "PcOxP_DB04_A04 (scFv, V domains shown, scFv in periplasmic extract) VH: EVQLLESGGGLVQPGGSLRLSCAASGFTFSDFYMEWVRQAPGKGLEWVAASRNKWNDYTTEYADSVKGRFTISRDNSKNTLYLQMNSLRAEDTAVYYCARDYYGSSYWYFDVWGQGTLVTVSS VL: DIVMTQSPDSLAVSLGERATINCTASQSVYSSKNKKHYLAWYQQKPGQPPKLLIYGASNRYIGVPDRFSGSGSGTDFTLTISSLQAEDVAVYYCAQFYRYPLTFGGGTKVEIK", "recordedValue": 0.08}
